test system: SK-MEL-28 melanoma; assay: NCI-60 one-dose screen, 48 h (100 = growth as untreated, 0 = no growth, -100 = all killed); conditions: 10 µM unless noted
This is part of a sample that, as a whole, favours compounds with a hit. Of some 83,000 tested, about 20% had one in any assay.
VALUE_KIND: growth (%)
Give your result in % as a bare value.

Sure, the documented growth for CCCCN(CC)CC(CC)Nc1cc(OC)cc2cccnc12 (stereo unspecified) is 121

Sure, the documented growth for CC(=O)Nc1ccc2nc3ccc(NC(C)=O)cc3[n+](-c3ccccc3)c2c1 is 166

Sure, the documented growth for CC(C)C1=NOC(=O)C1=Cc1cn(-c2cccnc2)nc1-c1ccccc1 is 112

Sure, the documented growth for C#CCC(C(=O)OCC)C(=O)OCC is 109

Sure, the documented growth for O=C(NCc1ccc(Cn2c(=O)sn(-c3ccccc3)c2=O)cc1)OCc1ccc2c(Br)cc(Br)c(O)c2n1 is -69.9

Sure, the documented growth for CCCSc1nc(N)nc2nc[nH]c12 is 126

###

tested on: PC-3 prostate; assay: NCI-60 one-dose screen, 48 h (100 = growth as untreated, 0 = no growth, -100 = all killed); conditions: 10 µM unless noted
This is part of a sample that, as a whole, favours compounds with a hit. Of some 83,000 tested, about 20% had one in any assay. The source made the active and inactive calls. How the source made its calls: active means growth percent below 10; inactive means the rest.
Reported growth values are given for each entry in this list.

Below are worked cases with known answers.
- STRUCTURE_SMILES: "O=C(Nc1ccc(CN2CCOCC2)c(C(F)(F)F)c1)c1nc2ccc3[nH]ncc3c2c2c1CCCC2"
  growth: "66.2% (inactive)"
- STRUCTURE_SMILES: "COC(=O)[C@H](CC(C)C)NC(=O)NC(=O)NC(=O)CI"
  growth: "78.3% (inactive)"
- STRUCTURE_SMILES: "O=C1Nc2ccccc2/C1=C/C(=O)c1ccc(N2CCCCC2)cc1"
  growth: "52.7% (inactive)"
- STRUCTURE_SMILES: "CSc1nc2sc3cc(Cl)c(Cl)cc3n2c(=N)c1C#N"
  growth: "97.6% (inactive)"
- STRUCTURE_SMILES: "O=C(OCc1ccc2c(Cl)cc(Cl)c(O)c2n1)N1CCNCC1"
  growth: "29.8% (inactive)"

Sure, the documented growth for Fc1ccc(NC(=S)c2ccccc2)cc1 is 100% (inactive)

Sure, the documented growth for O=C(Nc1ccc(Oc2ccc(F)cc2)c(Cl)c1)c1cccnn1 is 64.4% (inactive)

Sure, the documented growth for C#CCNC(=O)CC[C@]1(C)[C@H]2CC[C@@H]3[C@@H]([C@@](C)(O)CCC=C(C)C)CC[C@@]3(C)[C@]2(C)CC[C@H]1C(=C)C is 20.5% [100 µM] (inactive)

Sure, the documented growth for C=C(C)[C@@H]1CC[C@]2(C)[C@H](CC[C@@H]3[C@@H]([C@@](C)(O)CCC=C(C)C)CC[C@]32C)[C@@]1(C)CCC(=O)N1CCN(C)CC1 is -61.8% [100 µM] (active)

###

Test system: OVCAR-4 ovarian
Assay: NCI-60 one-dose screen, 48 h (100 = growth as untreated, 0 = no growth, -100 = all killed)
Settings: 10 µM
Description: Growth inhibition of the OVCAR-4 human tumor cell line is measured as a screen for anti-cancer activity. Cells are grown in 96 well plates and exposed to the test compound for 48 hours. Compounds are tested at a single concentration, which is 10^-5 M for most compounds. The reported endpoint is percent growth (GI% or GIPRCNT), where numbers from 0 - 100% represent growth inhibition, and numbers from -100% - 0 represent cell death. For example, a value of 40 represents 60% growth inhibition. […]
About 83,000 compounds went through this panel and 20% of them were active in at least one assay; those are over-represented in the sample as a whole.
Reported growth values are given for each entry in this list.
Give your result in % as a bare value.

- STRUCTURE_SMILES: "CN(C)Cc1ccc[nH]1"
  growth / %: 109
- STRUCTURE_SMILES: "Cc1cccc(/C=C2\\N=C(c3ccccc3)N(c3ccc(S(N)(=O)=O)cc3)C2=O)c1"
  growth / %: 77.1
- STRUCTURE_SMILES: "NS(=O)(=O)c1ccc(CCN2C(=O)/C(=C\\c3ccccc3)C=C2c2ccc(Cl)cc2)cc1"
  growth / %: 95.4
- STRUCTURE_SMILES: "COc1cc(-c2cc(-c3ccc(Nc4ncnc5cc(Cl)ccc45)cc3)nc(N3CCCCC3)n2)cc(OC)c1OC"
  growth / %: 106

Note to self: growth of O=C1COCCN1c1ccc(NCc2cn(Cc3cccc4ccccc34)c3ccccc23)cc1 with OVCAR-4 ovarian was 69.8

###

Tested on: HCC-2998 colon
Assay: NCI-60 one-dose screen, 48 h
Details: 10 µM unless noted
Procedure: Growth inhibition of the HCC-2998 human tumor cell line is measured as a screen for anti-cancer activity. Cells are grown in 96 well plates and exposed to the test compound for 48 hours. Compounds are tested at a single concentration, which is 10^-5 M for most compounds. The reported endpoint is percent growth (GI% or GIPRCNT), where numbers from 0 - 100% represent growth inhibition, and numbers from -100% - 0 represent cell death. For example, a value of 40 represents 60% growth inhibition. […]
Compounds without any hit were thinned out: in the full panel of roughly 83,000, 20% have a hit. Activity calls are given as the source filed them. Rule for the calls: active = growth percent below 10; inactive = the rest.
Write down the outcome that applies. Available outcomes: active, inactive

Example entries and their recorded answers appear below.
- COMPOUND: "CC(C)CCSC1=CC(=O)c2ccccc2C1=O"
  CATEGORY: "inactive"
- COMPOUND: "O=[N+]([O-])c1cc(CCl)ccc1OCCBr"
  CATEGORY: "inactive"
- COMPOUND: "COc1ccc(-c2cc(-c3ccccc3)nc(SCCCCCC(=O)NO)n2)cc1"
  CATEGORY: "inactive"

[ask] Dear colleague, could you share the recorded outcome for CCN(CC)CCSC(=O)C(O)(c1ccccc1)C1CCCC1 (stereo unspecified) when you have a moment?
[reply] inactive

[ask] Dear colleague, could you share the recorded outcome for Cn1c(=O)c(C#N)c(-c2ccco2)n2c(S(=O)(=O)Cc3ccccc3)nnc12 when you have a moment?
[reply] inactive

[ask] Dear colleague, could you share the recorded outcome for C=C(CN=[N+]=[N-])[C@@H]1CC[C@]2(C)[C@H](CC[C@@H]3[C@H]4[C@H]5OC(=O)[C@@]4(CCC5(C)C)CC[C@]32C)[C@@]1(C)CCC#N when you have a moment?
[reply] inactive

[ask] Dear colleague, could you share the recorded outcome for O=S(=O)(NCc1ccccc1)c1ncnc2nc[nH]c12 when you have a moment?
[reply] inactive

[ask] Dear colleague, could you share the recorded outcome for CCN(CC)c1ccc2cc(C(Nc3ccc(C)cc3)c3nnnn3C(C)(C)C)c(=O)oc2c1 (stereo unspecified) when you have a moment?
[reply] inactive

[ask] Dear colleague, could you share the recorded outcome for CO[C@H]1CC[C@@]2(C)C(=CC[C@H]3[C@@H]4C[C@H](O)C[C@@]4(C)CC[C@@H]32)C1 when you have a moment?
[reply] inactive

[ask] Dear colleague, could you share the recorded outcome for Nn1c(Nc2ccc(S(=O)(=O)Nc3ncccn3)cc2)nnc(/C=C/c2c(O)ccc3ccccc23)c1=O when you have a moment?
[reply] inactive

[ask] Dear colleague, could you share the recorded outcome for Cc1ccccc1-n1nnc(C(=O)Nc2nc3ccc(F)cc3s2)c1C when you have a moment?
[reply] inactive

[ask] Dear colleague, could you share the recorded outcome for NNC(=O)c1ccc(C(=O)NN)cc1 when you have a moment?
[reply] inactive

[ask] Dear colleague, could you share the recorded outcome for Cc1cc(C)c(-c2cc(O)c(-c3c(C)cc(C)cc3C)cc2O)c(C)c1 when you have a moment?
[reply] inactive

[ask] Dear colleague, could you share the recorded outcome for C[C@@H]1C[C@H]2C(=O)O[C@@H](C)[C@H](NC(=O)[C@H](Cc3cc(F)cc(F)c3)NC(=O)Nc3ccc(C4CC4)cc3F)C(=O)N3CCC[C@H]3C(=O)N3CCCC[C@H]3C(=O)N[C@@H](C)C(=O)N2C1 when you have a moment?
[reply] active

[ask] Dear colleague, could you share the recorded outcome for CCCCCCCCCCCCCCNC(=O)Nc1ccc(Cl)c(Cl)c1 when you have a moment?
[reply] inactive

[ask] Dear colleague, could you share the recorded outcome for Cn1cc(-c2nnc(-c3cn(C)c4ncccc34)s2)c2ccccc21 when you have a moment?
[reply] inactive

[ask] Dear colleague, could you share the recorded outcome for COC(=O)[C@@H](NC(=O)NC(=O)NC(=O)CI)C(C)C when you have a moment?
[reply] inactive

[ask] Dear colleague, could you share the recorded outcome for CCOC(=O)n1cc(C2=C(c3ccc(OC)c(OC)c3)COC2=O)c2ccccc21 when you have a moment?
[reply] inactive

[ask] Dear colleague, could you share the recorded outcome for C=C(C)[C@@H]1CC[C@]2(C)[C@H](C(=O)C=C3[C@@H]4C[C@](C)(C(=O)N5CCN(C)CC5)CC[C@]4(C)CC[C@]32C)[C@@]1(C)CCC#N when you have a moment?
[reply] active

[ask] Dear colleague, could you share the recorded outcome for C#CCNC(=O)CC[C@]1(C)[C@H]2CC[C@@H]3[C@@H]([C@@](C)(O)CCC=C(C)C)CC[C@@]3(C)[C@]2(C)CC[C@H]1C(=C)C when you have a moment?
[reply] inactive

[ask] Dear colleague, could you share the recorded outcome for O=C1C(Cl)=C(Nc2ccc3cn[nH]c3c2)C(=O)c2ccccc21 when you have a moment?
[reply] active

[ask] Dear colleague, could you share the recorded outcome for CCOC(=O)c1cnc2ccc(Br)cc2c1Nc1cccc(S(N)(=O)=O)c1 when you have a moment?
[reply] inactive

[ask] Dear colleague, could you share the recorded outcome for C#CCOc1ccc(C2=NN(CC3CC3)C3N=C(Cl)c4ncn(CC5CC5)c4N23)cc1OCC#C (stereo unspecified) when you have a moment?
[reply] inactive

[ask] Dear colleague, could you share the recorded outcome for COc1ccc(C2NC(=O)C(C#N)c3c2sc2c(F)cccc32)cc1 (stereo unspecified) when you have a moment?
[reply] inactive

[ask] Dear colleague, could you share the recorded outcome for CC(C)(C)c1cc(C(=O)N2CCC(C(=O)NCCN)CC2)cc(C(C)(C)C)c1 when you have a moment?
[reply] inactive
